# assay_target: JAK3 (Homo sapiens)
# experiment: Functional assay of protein kinases (Caliper mobility shift), JAK3
# measurement_setup: ATP 8 μM, 30 min incubation
Reported IC50 values for a set of molecules

Below, 5 molecules whose answers are already recorded.
In [3]: df
Out[3]:
                                   molecule         assay_target  value_kind  observed_measurement
0  O=C(N[C@H]1CC[C@H](C(=O)O)CC1)c1cccn2c(=O)c3cc(-c4ccncc4)ccc3nc12 [Example 35]  JAK3 (Homo sapiens)        IC50        100 to 1000 nM
1  NC(=O)c1ccc(-c2ccc3nc4c(C(=O)N[C@H]5CC[C@@H](C(=O)O)CC5)cccn4c(=O)c3c2)s1 [Example 43]  JAK3 (Homo sapiens)        IC50              < 100 nM
2  O=C(N[C@H]1CC[C@@H](C(=O)O)CC1)c1cccn2c(=O)c3cc(-c4ccccc4)ccc3nc12 [Example 15]  JAK3 (Homo sapiens)        IC50              < 100 nM
3  O=C(N[C@H]1CC[C@@H](C(=O)O)CC1)c1cccn2c(=O)c3cc(-c4cccs4)ccc3nc12 [Example 39]  JAK3 (Homo sapiens)        IC50              < 100 nM
4  O=C(NC1CCC(C(=O)O)CC1)c1cccn2c(=O)c3cc(C4CC4)ccc3nc12 (stereo not shown) [Example 4]  JAK3 (Homo sapiens)        IC50        100 to 1000 nM

INPUT: Sample Cc1ccc(-c2ccc3nc4c(C(=O)N[C@H]5CC[C@@H](C(=O)O)CC5)cccn4c(=O)c3c2)s1 [Example 2] — what was its IC50?
OUTPUT: < 100 nM

INPUT: Which IC50 reading was recorded for the molecule O=C(O)c1ccc(-c2ccc3nc4c(C(=O)N[C@H]5CC[C@@H](C(=O)O)CC5)cccn4c(=O)c3c2)cc1 [Example 33] ?
OUTPUT: < 100 nM

---

Reported IC50 values for a set of compounds
# assay_target: JAK3 (Homo sapiens, UniProt P52333)
# Sequence (P52333 795-1124 limits assumed): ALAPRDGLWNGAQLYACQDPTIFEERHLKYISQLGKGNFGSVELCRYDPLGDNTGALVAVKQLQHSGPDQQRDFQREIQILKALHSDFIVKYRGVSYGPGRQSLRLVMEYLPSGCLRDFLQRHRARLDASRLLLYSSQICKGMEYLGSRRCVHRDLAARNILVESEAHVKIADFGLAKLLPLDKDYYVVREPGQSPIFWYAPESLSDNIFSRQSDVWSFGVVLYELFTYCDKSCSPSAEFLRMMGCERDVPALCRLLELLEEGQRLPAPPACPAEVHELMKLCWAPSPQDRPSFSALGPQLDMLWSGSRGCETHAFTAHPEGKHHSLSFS
# experiment: Functional assay of protein kinases (Caliper mobility shift), JAK3
# measurement_setup: ATP 8 μM, 30 min incubation
# Procedure: Functional Assays of Protein Kinases The functional assays of protein kinases were carried out in 384-well plates using a final volume of 30 μl. […] The reaction was reads in a “Caliper EzReader LabChip 3000” (Caliper, Hopkinton, Mass.) reader, based on electrophoretic mobility of the fluorescent substrate and the phosphorylated product. The inhibition percentages were calculated by comparison between control reactions, for 100% of inhibition and reactions with only DMSO for 0% of inhibition.

In [3]: df
Out[3]:
                                   compound                         assay_target  observed_measurement
0  O=C(NC12CCC(C(=O)O)(CC1)CC2)c1cccn2c(=O)c3cc(C4CC4)ccc3nc12  JAK3 (Homo sapiens, UniProt P52333)        100 to 1000 nM

INPUT: Report IC50 for O=C(N[C@H]1CC[C@@H](C(=O)O)CC1)c1cccn2c(=O)c3cc(-c4ccc(C5CC5)s4)ccc3nc12 please.
OUTPUT: < 100 nM

INPUT: Quick one: IC50 of O=C(N[C@H]1CC[C@@H](C(=O)O)CC1)c1cccn2c(=O)c3ccccc3nc12 ?
OUTPUT: 100 to 1000 nM

INPUT: Dear colleague, I am looking for the recorded IC50 of the following compound: N#Cc1ccc(-c2ccc3nc4c(C(=O)N[C@H]5CC[C@@H](C(=O)O)CC5)cccn4c(=O)c3c2)cc1
OUTPUT: < 100 nM

INPUT: Item O=C(N[C@H]1CC[C@@H](C(=O)O)CC1)c1cccn2c(=O)c3cc(N4CCOCC4)ccc3nc12 has what recorded IC50?
OUTPUT: < 100 nM

INPUT: // returns reported IC50 for input O=C(N[C@H]1CC[C@@H](C(=O)O)CC1)c1cccn2c(=O)c3cc(-c4ccc(F)cc4)ccc3nc12
OUTPUT: < 100 nM

INPUT: Report IC50 for O=C(NC1CC(C(=O)O)C1)c1cccn2c(=O)c3cc(C4CC4)ccc3nc12 (centres unmarked) please.
OUTPUT: 100 to 1000 nM

INPUT: Which IC50 value is on record for Cc1cc(C(=O)NC2CCC(C(=O)O)CC2)c2nc3ccccc3c(=O)n2c1 (centres unmarked) ?
OUTPUT: 100 to 1000 nM

---

pIC50 reference
# assay_target: JAK3 (Homo sapiens)
# experiment: Functional assay of protein kinases (Caliper mobility shift), JAK3
# measurement_setup: ATP 8 μM, 30 min incubation
pIC50: −log10 of the molar value.

Please review the entries below; each comes with its answer.
>>> df
                                   compound  observed_measurement
0  O=C(NC1CCC(C(=O)O)CC1)c1cccn2c(=O)c3cc(C4CC4)ccc3nc12 (centres unmarked) [Example 1]                > 7.00
1  Cn1cc(-c2ccc3nc4c(C(=O)N[C@H]5CC[C@@H](C(=O)O)CC5)cccn4c(=O)c3c2)cn1 [Example 38]                > 7.00
2  Cn1cnc(-c2ccc3nc4c(C(=O)N[C@H]5CC[C@@H](C(=O)O)CC5)cccn4c(=O)c3c2)c1 [Example 44]                > 7.00

INPUT: What is its pIC50 for JAK3 (Homo sapiens)? Entry: O=C(N[C@H]1CC[C@@H](C(=O)O)CC1)c1cc(Br)cn2c(=O)c3ccccc3nc12 [Example 40]
OUTPUT: 6.00 to 7.00

INPUT: Form field: pIC50 recorded for O=C(NC1CCC(C(=O)O)CC1)c1cccn2c(=O)c3cc(Br)ccc3nc12 (centres unmarked) [Example 24] with JAK3 (Homo sapiens) (enter value)
OUTPUT: 6.00 to 7.00

INPUT: I'm curious: which pIC50 was measured for O=C(N[C@H]1CC[C@@H](C(=O)O)CC1)c1cccn2c(=O)c3cc(-c4ccncc4F)ccc3nc12 [Example 36] tested on JAK3 (Homo sapiens)?
OUTPUT: > 7.00

INPUT: Can you look up pIC50 on JAK3 (Homo sapiens) for COc1ccc2nc3c(C(=O)NC4CCC(C(=O)O)CC4)cccn3c(=O)c2c1 (centres unmarked) [Example 20] ?
OUTPUT: > 7.00

INPUT: Quick check: pIC50 on JAK3 (Homo sapiens), item O=C(NC1CCC(C(=O)O)CC1)c1cccn2c(=O)c3cc(O)ccc3nc12 (centres unmarked) [Example 19] ?
OUTPUT: 6.00 to 7.00

---

// reported pIC50 per item
# assay_target: TYK2 (Homo sapiens, UniProt P29597)
# Sequence (P29597 871-1187 limits assumed): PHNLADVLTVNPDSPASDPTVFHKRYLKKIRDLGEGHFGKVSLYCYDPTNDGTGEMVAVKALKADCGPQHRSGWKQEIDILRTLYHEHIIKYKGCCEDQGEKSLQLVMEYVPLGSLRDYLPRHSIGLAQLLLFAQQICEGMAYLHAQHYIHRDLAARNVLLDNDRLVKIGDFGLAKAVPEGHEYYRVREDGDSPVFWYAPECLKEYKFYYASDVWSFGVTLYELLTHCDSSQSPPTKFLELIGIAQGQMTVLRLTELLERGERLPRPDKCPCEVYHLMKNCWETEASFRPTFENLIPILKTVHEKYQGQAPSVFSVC
# experiment: Functional assay of protein kinases (Caliper mobility shift), TYK2
# measurement_setup: ATP 20 μM, 45 min incubation
pIC50: −log10 of the molar value.

INPUT: Find the recorded pIC50 belonging to O=C(N[C@H]1CC[C@@H](C(=O)O)CC1)c1cccn2c(=O)c3cc(-c4cccnc4)ccc3nc12 and report it.
OUTPUT: > 7.00

INPUT: Please look up its pIC50: Cc1ccc(-c2ccc3nc4c(C(=O)N[C@H]5CC[C@@H](C(=O)O)CC5)cccn4c(=O)c3c2)s1
OUTPUT: > 7.00

INPUT: Request the reported pIC50 associated with Cn1cc(-c2ccc3nc4c(C(=O)N[C@H]5CC[C@@H](C(=O)O)CC5)cccn4c(=O)c3c2)cn1
OUTPUT: > 7.00

INPUT: Could you tell me which pIC50 is on file for O=C(N[C@H]1CC[C@@H](C(=O)O)CC1)c1cccn2c(=O)c3cc(-c4ccc(F)c(F)c4)ccc3nc12 ?
OUTPUT: > 7.00

---

# assay_target: TYK2 (Homo sapiens)
# experiment: Functional assay of protein kinases (Caliper mobility shift), TYK2
# measurement_setup: ATP 20 μM, 45 min incubation
Item-by-item account of IC50

Worked set:
                                   compound  observed_measurement
0  O=C(NC1CCC(C(=O)O)CC1)c1cccn2c(=O)c3ccccc3nc12 (stereo not drawn)        100 to 1000 nM
1  Cc1cc(C(=O)N[C@H]2CC[C@@H](C(=O)O)CC2)c2nc3ccccc3c(=O)n2c1        100 to 1000 nM
2  O=C(N[C@H]1CC[C@@H](C(=O)O)CC1)c1cccn2c(=O)c3cc(N4CCOCC4)ccc3nc12              < 100 nM
3  O=C(N[C@H]1CC[C@@H](C(=O)O)CC1)c1cccn2c(=O)c3ccccc3nc12        100 to 1000 nM
4  COc1ccc2nc3c(C(=O)NC4CCC(C(=O)O)CC4)cccn3c(=O)c2c1 (stereo not drawn)        100 to 1000 nM

INPUT: Reported IC50, compound O=C(N[C@H]1CC[C@@H](C(=O)O)CC1)c1cccn2c(=O)c3cc(-c4cncnc4)ccc3nc12 : ____
OUTPUT: 100 to 1000 nM

INPUT: # lookup: IC50 of O=C(N[C@H]1CC[C@@H](C(=O)O)CC1)c1cccn2c(=O)c3cc(-c4ccncc4)ccc3nc12
OUTPUT: < 100 nM

INPUT: Which IC50 is listed for O=C(NC12CCC(C(=O)O)(CC1)CC2)c1cccn2c(=O)c3cc(C4CC4)ccc3nc12 ?
OUTPUT: 100 to 1000 nM
